Taken from the COVID Moonshot data (paper PMC7615835).

Measured pIC50 on SARS-CoV-2 Main Protease (SARS-CoV-2) (UniProt P0DTD1) follows.
pIC50: −log10 of the molar value.
recorded metric: pIC50

* O=C(N/N=c1\cc[nH]c2ccccc12)c1ccc2ncccc2c1 | < 4.00
* C=CC(=O)N(c1cc(C(C)(C)C)on1)C(C(=O)NC(C)(C)C)c1cccnc1 (stereo not given) | < 4.00
* O=C(c1ccc(N2CCCC2)nc1)N1CCCC(c2ccn[nH]2)C1 (stereo not given) | < 4.00
* Cc1cc(C(=O)N2CCC(C3CCNC3)CC2)cc(S(=O)(=O)N(C)C)c1C (stereo not given) | < 4.00
* CN(C(=O)c1ccccc1N)c1cc(Cl)cc(CC(=O)Nc2cncc3ccccc23)c1 | 5.71
* COc1cc(C(=O)N(c2ccc(C(C)(C)C)cc2)C(C(=O)NCCc2cccc(F)c2)c2cccnc2)sn1 (stereo not given) | < 4.00
* O=C(Nc1cccnc1)[C@@H](c1ccccc1)N1Cc2ccccc2C1=O (stereo in doubt) | < 4.00
* CN(C)C(=O)CNC(=O)C(c1cccnc1)N(C(=O)c1cocn1)c1ccc(C(C)(C)C)cc1 (stereo not given) | 4.53
* O=C(Nc1cnn2ccccc12)C1CCS(=O)(=O)c2ccc(Cl)cc21 (stereo not given) | 5.41
* O=C1CCN(S(=O)(=O)c2cccc(F)c2)CC1 | < 4.00
* O=C(Cc1cc(Cl)cc(N2CCN(Cc3cccc(F)c3)CC2)c1)Nc1cncc2ccccc12 | 5.48
* O=C(NCCc1cccc(F)c1)C(c1cccnc1)N(C(=O)c1cocn1)c1ccccc1 (stereo not given) | 4.05
* Cn1c(NCc2cn3ccnc3s2)nc2ccccc21 | < 4.00
* C=CC(=O)NCC(=O)N(Cc1ccccc1O)C[C@@H]1CCCO1 (stereo in doubt) | < 4.00
* CN(Cc1nc2ccccc2s1)C(=O)c1ccc2c(c1)nnn2C | < 4.00
